Reported EC50 values for a set of binders
target: T1, cynomolgus monkey FcRn (cynomolgus monkey, UniProt Q8SPV9 24-297; Q8SPW0 21-119, limits assumed); assay: SPR competition pH 5.5
T1 construct: also called Cynomolgus FcRn
T1 sequence (Q8SPV9 24-297 limits assumed, chain 1 of 2): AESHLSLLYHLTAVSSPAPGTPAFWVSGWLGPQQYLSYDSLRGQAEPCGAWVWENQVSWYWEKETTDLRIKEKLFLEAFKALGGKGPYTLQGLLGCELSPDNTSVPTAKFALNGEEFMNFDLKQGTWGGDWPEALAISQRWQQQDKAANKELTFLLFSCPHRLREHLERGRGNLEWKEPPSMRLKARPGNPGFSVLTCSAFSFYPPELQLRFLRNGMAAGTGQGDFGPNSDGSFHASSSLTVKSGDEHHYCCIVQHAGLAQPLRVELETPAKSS
T1 sequence (Q8SPW0 21-119 limits assumed, chain 2 of 2): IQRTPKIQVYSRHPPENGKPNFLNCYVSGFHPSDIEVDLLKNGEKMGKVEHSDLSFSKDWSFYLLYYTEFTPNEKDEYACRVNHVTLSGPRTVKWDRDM
Output spec: scalar in nM, unitless text.

Below are worked cases with known answers.
variant Fc-fragment Fc-5-85 (other, library L5 isolate) EPKSCDKTHTCPPCPAPELLGGPSVFLFPPKPKDTLMISRTPEVTCVVVDVSHEDPEVKFNWYVDGVEVHNAKTKPREEQYNSTYRVVSVLTVLHQDWLNGKEYKCKVSNKALPAPIEKTISKAKGQPREPQVYTLPPSRDELTKNQVSLTCLVKGFYPSDIAVEWESNGGCIGPFWWCGGGQPENNYKTTPPVLDSDGSFFLYSKLTVDKSRWQQGNVFSCSVMHEALHNHYTQKSLSLSPGK    25
variant Fc-fragment Fc-5-95 (other, library L5 isolate) EPKSCDKTHTCPPCPAPELLGGPSVFLFPPKPKDTLMISRTPEVTCVVVDVSHEDPEVKFNWYVDGVEVHNAKTKPREEQYNSTYRVVSVLTVLHQDWLNGKEYKCKVSNKALPAPIEKTISKAKGQPREPQVYTLPPSRDELTKNQVSLTCLVKGFYPSDIAVEWESNGGCDRPVWFCGGGQPENNYKTTPPVLDSDGSFFLYSKLTVDKSRWQQGNVFSCSVMHEALHNHYTQKSLSLSPGK    50

Next item in the queue.
Prompt: Look at this binder and give its reported EC50. variant Fc-fragment Fc-5-113 (other, soluble elsewhere) EPKSCDKTHTCPPCPAPELLGGPSVFLFPPKPKDTLMISRTPEVTCVVVDVSHEDPEVKFNWYVDGVEVHNAKTKPREEQYNSTYRVVSVLTVLHQDWLNGKEYKCKVSNKALPAPIEKTISKAKGQPREPQVYTLPPSRDELTKNQVSLTCLVKGFYPSDIAVEWESNGGCQGMWTWCGGGQPENNYKTTPPVLDSDGSFFLYSKLTVDKSRWQQGNVFSCSVMHEALHNHYTQKSLSLSPGK
Response: 27
